- ASSAY_TEXT: Oral dose escalation study in rats (Study D of Ica; historical Study E of IVc)
- Format: in vivo
- PARTICULARS: Sprague-Dawley, rat, plasma, po, 25 mg/kg
ASSAY_ENDPOINT: Tmax (h)

| COMPOUND | ASSAY_RESULT |
| --- | --- |
| COc1cnc(-n2cnc(C)n2)c2[nH]cc(C(=O)C(=O)N3CCN(C(=O)c4ccccc4)CC3)c12 [IVc] | 4 |

* * *

- ASSAY_TEXT: Single-dose toxicokinetic and tolerability study of prodrugs in dogs
- Assay type: in vivo, dog
- PARTICULARS: male, dog, plasma, po, 25 mg/kg, dog 2101M, day 8, Ibb 25 mg/kg QD aqueous solution; read-out: T1/2 (converted)

| MOLECULE | half-life / h |
| --- | --- |
| O=C(C(=O)N1CCN(C(=O)c2ccccc2)CC1)c1c[nH]c2c(-n3ccnn3)ncc(F)c12 [IVb] | 3.3 |
